test system: HIV-IIIb IN T174I BT; assay: Antiviral assay in MT4 cells, HIV-IIIb IN T174I BT virus (from viral breakthrough); format: cell-based, HIV-1; settings: Human immunodeficiency virus 1, IIIB, MT4, 120 h, read-out: T174I BT EC50, MT4 cells, HIV-IIIb IN T174I BT (viral breakthrough), 5 days, CellTiter-Glo
Value kind: EC50 (nM)
Report the value in nM with no unit label.

[ask] Any idea what its EC50 is? The compound is Cc1cc2nc(-c3ccc4c(n3)c(C3CCN(C5COC5)CC3)nn4C(F)F)sc2c(-c2ccc(Cl)cc2)c1[C@H](OC(C)(C)C)C(=O)O [Compound 194]
[reply] 126

[ask] Any idea what its EC50 is? The compound is Cc1cc2nc(-c3ccc4c(c3)c(C3CCOCC3)nn4C)sc2c(-c2ccc(Cl)cc2)c1[C@H](OC(C)(C)C)C(=O)O [Compound 19]
[reply] 1170

[ask] Any idea what its EC50 is? The compound is Cc1cc2nc(-c3ccc4c(c3)c(N3CCN(C)C(=O)C3)nn4C)sc2c(-c2ccc(Cl)cc2)c1[C@H](OC(C)(C)C)C(=O)O [Compound 85]
[reply] 1350

[ask] Any idea what its EC50 is? The compound is Cc1cc2nc(-c3ccc4c(n3)c(C3CCN(C5COC5)CC3)nn4C)sc2c(-c2ccc(Cl)cc2)c1[C@H](OC(C)(C)C)C(=O)O [Compound 175]
[reply] 122

[ask] Any idea what its EC50 is? The compound is CC(=O)N1CC[C@@H](N2CCC(c3nn(C)c4ccc(-c5nc6cc(C)c([C@H](OC(C)(C)C)C(=O)O)c(-c7ccc(Cl)cc7)c6s5)cc34)CC2)C1 [Compound 12]
[reply] 81

[ask] Any idea what its EC50 is? The compound is Cc1cc2nc(-c3ccc4c(c3)c(N3CC[C@@H](N(C)C)C3)nn4C)sc2c(-c2ccc(Cl)cc2)c1[C@H](OC(C)(C)C)C(=O)O [Compound 92]
[reply] 938

----------
tested on: HIV-IIIb IN T174I DE; assay: Antiviral assay in MT4 cells, HIV-IIIb IN T174I DE virus (from dose escalation passaging); assay type: cell-based, HIV-1; conditions: Human immunodeficiency virus 1, IIIB, MT4, 120 h, read-out: T174I DE EC50, MT4 cells, HIV-IIIb IN T174I DE (dose escalation), 5 days, CellTiter-Glo
Value kind: EC50 (nM)
Report the value in nM with no unit label.

[ask] Any idea what its EC50 is? The compound is `CCn1nc(C2CCN(C3CN(C(C)=O)C3)CC2)c2nc(-c3nc4cc(C)c([C@H](OC(C)(C)C)C(=O)O)c(-c5ccc(Cl)cc5)c4s3)ccc21`
[reply] 34

[ask] Any idea what its EC50 is? The compound is `CCN1CCC(c2nn(C)c3ccc(-c4nc5cc(C)c([C@H](OC(C)(C)C)C(=O)O)c(-c6ccc(Cl)cc6)c5s4)cc23)CC1`
[reply] 540

[ask] Any idea what its EC50 is? The compound is `COC(=O)N1CC(N2CCC(c3nn(C)c4ncc(-c5nc6cc(C)c([C@H](OC(C)(C)C)C(=O)O)c(-c7ccc(Cl)cc7)c6s5)cc34)CC2)C1`
[reply] 2200
